meta.source: ChEMBL document CHEMBL1155297

test system: Proteus vulgaris; assay: Antibacterial activity against Proteus vulgaris NCIM 2027 at 200 ug/disk after 24 hrs by agar disk diffusion method; assay type: functional; conditions: NCIM 2027, 24 h, read-out: IZ
Quick rule: zone of inhibition at 200 µg/disc of at least 20 mm means label 1, below that means label 0.

{"columns": ["Molecule", "Measurement target", "Class label"],
 "data": [
  ["NC1=NN=C(N)C1C(CC(=O)c1ccccc1)C(=O)c1ccccc1 (configuration not stated)", "Proteus vulgaris", "label 1"],
  ["Cc1ccc(S(=O)(=O)CC(C2C(=N)N(C)C(=O)N(C)C2=N)S(=O)(=O)c2ccc(C)cc2)cc1 (configuration not stated)", "Proteus vulgaris", "label 0"],
  ["Cc1ccc(C(=O)CC(C(=O)c2ccc(C)cc2)C2C(N)=NN=C2N)cc1 (configuration not stated)", "Proteus vulgaris", "label 1"],
  ["NC1=NC(=O)N=C(N)C1C(CS(=O)(=O)c1ccccc1)S(=O)(=O)c1ccccc1 (configuration not stated)", "Proteus vulgaris", "label 0"],
  ["NC1=NN=C(N)C1C(CS(=O)(=O)c1ccccc1)S(=O)(=O)c1ccccc1 (configuration not stated)", "Proteus vulgaris", "label 1"],
  ["NC1=NC(=S)N=C(N)C1C(CS(=O)(=O)c1ccc(Cl)cc1)S(=O)(=O)c1ccc(Cl)cc1 (configuration not stated)", "Proteus vulgaris", "label 1"],
  ["NC1=NC(=S)N=C(N)C1C(CC(=O)c1ccc(Cl)cc1)C(=O)c1ccc(Cl)cc1 (configuration not stated)", "Proteus vulgaris", "label 1"],
  ["CN1C(=N)C(C(CS(=O)(=O)c2ccc(Cl)cc2)S(=O)(=O)c2ccc(Cl)cc2)C(=N)N(C)C1=O (configuration not stated)", "Proteus vulgaris", "label 0"],
  ["CN1C(=N)C(C(CC(=O)c2ccc(Cl)cc2)C(=O)c2ccc(Cl)cc2)C(=N)N(C)C1=O (configuration not stated)", "Proteus vulgaris", "label 0"],
  ["Cc1ccc(C(=O)CC(C(=O)c2ccc(C)cc2)C2C(=N)ON=C2N)cc1 (configuration not stated)", "Proteus vulgaris", "label 1"],
  ["Cc1ccc(C(=O)CC(C(=O)c2ccc(C)cc2)C2C(N)=NC(=S)N=C2N)cc1 (configuration not stated)", "Proteus vulgaris", "label 0"],
  ["NC1=NC(=O)N=C(N)C1C(CC(=O)c1ccc(Cl)cc1)C(=O)c1ccc(Cl)cc1 (configuration not stated)", "Proteus vulgaris", "label 0"],
  ["Cc1ccc(S(=O)(=O)CC(C2C(=N)ON=C2N)S(=O)(=O)c2ccc(C)cc2)cc1 (configuration not stated)", "Proteus vulgaris", "label 1"],
  ["NC1=NC(=S)N=C(N)C1C(CS(=O)(=O)c1ccccc1)S(=O)(=O)c1ccccc1 (configuration not stated)", "Proteus vulgaris", "label 1"],
  ["Cc1ccc(S(=O)(=O)CC(C2C(N)=NN=C2N)S(=O)(=O)c2ccc(C)cc2)cc1 (configuration not stated)", "Proteus vulgaris", "label 1"],
  ["Cc1ccc(C(=O)CC(C(=O)c2ccc(C)cc2)C2C(N)=NC(=O)N=C2N)cc1 (configuration not stated)", "Proteus vulgaris", "label 0"]
]}

###

Measured zone of inhibition at 100 µg/disc accompanies every entry in the list below.
system: Proteus vulgaris; experiment: Antibacterial activity against Proteus vulgaris NCIM 2027 at 100 ug/disk after 24 hrs by agar disk diffusion method; assay type: functional; settings: NCIM 2027, 24 h, read-out: IZ
Endpoint: zone of inhibition at 100 µg/disc

{"columns": ["Compound", "Endpoint", "Experimental result"],
 "data": [
  ["NC1=NC(=O)N=C(N)C1C(CC(=O)c1ccccc1)C(=O)c1ccccc1 (centres undefined)", "zone of inhibition at 100 µg/disc", "12 mm"],
  ["Cc1ccc(C(=O)CC(C(=O)c2ccc(C)cc2)C2C(N)=NN=C2N)cc1 (centres undefined)", "zone of inhibition at 100 µg/disc", "24 mm"],
  ["NC1=NN=C(N)C1C(CC(=O)c1ccc(Cl)cc1)C(=O)c1ccc(Cl)cc1 (centres undefined)", "zone of inhibition at 100 µg/disc", "25 mm"],
  ["CN1C(=N)C(C(CS(=O)(=O)c2ccccc2)S(=O)(=O)c2ccccc2)C(=N)N(C)C1=O (centres undefined)", "zone of inhibition at 100 µg/disc", "10 mm"],
  ["Cc1ccc(C(=O)CC(C(=O)c2ccc(C)cc2)C2C(=N)N(C)C(=O)N(C)C2=N)cc1 (centres undefined)", "zone of inhibition at 100 µg/disc", "7 mm"],
  ["NC1=NC(=S)N=C(N)C1C(CS(=O)(=O)c1ccc(Cl)cc1)S(=O)(=O)c1ccc(Cl)cc1 (centres undefined)", "zone of inhibition at 100 µg/disc", "21 mm"],
  ["N=C1ON=C(N)C1C(CS(=O)(=O)c1ccc(Cl)cc1)S(=O)(=O)c1ccc(Cl)cc1 (centres undefined)", "zone of inhibition at 100 µg/disc", "28 mm"],
  ["Cc1ccc(S(=O)(=O)CC(C2C(N)=NC(=S)N=C2N)S(=O)(=O)c2ccc(C)cc2)cc1 (centres undefined)", "zone of inhibition at 100 µg/disc", "20 mm"],
  ["CN1C(=N)C(C(CC(=O)c2ccc(Cl)cc2)C(=O)c2ccc(Cl)cc2)C(=N)N(C)C1=O (centres undefined)", "zone of inhibition at 100 µg/disc", "9 mm"]
]}

###

Parameter: zone of inhibition at 200 µg/disc. Scope: all listed entries.
test system: Proteus vulgaris; assay: Antibacterial activity against Proteus vulgaris NCIM 2027 at 200 ug/disk after 24 hrs by agar disk diffusion method; assay type: functional; details: NCIM 2027, 24 h, read-out: IZ

{"columns": ["Compound", "Value units", "zone of inhibition at 200 µg/disc"],
 "data": [
  ["NC1=NC(=S)N=C(N)C1C(CC(=O)c1ccccc1)C(=O)c1ccccc1 (centres undefined)", "mm", 19],
  ["N=C1ON=C(N)C1C(CC(=O)c1ccc(Cl)cc1)C(=O)c1ccc(Cl)cc1 (centres undefined)", "mm", 26],
  ["N=C1ON=C(N)C1C(CS(=O)(=O)c1ccc(Cl)cc1)S(=O)(=O)c1ccc(Cl)cc1 (centres undefined)", "mm", 30],
  ["Cc1ccc(S(=O)(=O)CC(C2C(N)=NC(=O)N=C2N)S(=O)(=O)c2ccc(C)cc2)cc1 (centres undefined)", "mm", 18],
  ["Cc1ccc(C(=O)CC(C(=O)c2ccc(C)cc2)C2C(=N)N(C)C(=O)N(C)C2=N)cc1 (centres undefined)", "mm", 9],
  ["NC1=NN=C(N)C1C(CS(=O)(=O)c1ccc(Cl)cc1)S(=O)(=O)c1ccc(Cl)cc1 (centres undefined)", "mm", 33],
  ["NC1=NN=C(N)C1C(CC(=O)c1ccc(Cl)cc1)C(=O)c1ccc(Cl)cc1 (centres undefined)", "mm", 28],
  ["N=C1ON=C(N)C1C(CC(=O)c1ccccc1)C(=O)c1ccccc1 (centres undefined)", "mm", 24],
  ["N=C1ON=C(N)C1C(CS(=O)(=O)c1ccccc1)S(=O)(=O)c1ccccc1 (centres undefined)", "mm", 28]
]}

###

tested on: Proteus vulgaris; test: Antibacterial activity against Proteus vulgaris NCIM 2027 at 100 ug/disk after 24 hrs by agar disk diffusion method; assay type: functional; settings: NCIM 2027, 24 h, read-out: IZ
Cut-off 20 mm on zone of inhibition at 100 µg/disc, inclusive. At or above means condition met; below means condition not met.

{"columns": ["Compound", "Class label"],
 "data": [
  ["Cc1ccc(C(=O)CC(C(=O)c2ccc(C)cc2)C2C(N)=NC(=S)N=C2N)cc1 (stereo not drawn)", "condition not met"],
  ["NC1=NC(=O)N=C(N)C1C(CS(=O)(=O)c1ccccc1)S(=O)(=O)c1ccccc1 (stereo not drawn)", "condition not met"],
  ["NC1=NC(=O)N=C(N)C1C(CS(=O)(=O)c1ccc(Cl)cc1)S(=O)(=O)c1ccc(Cl)cc1 (stereo not drawn)", "condition not met"],
  ["Cc1ccc(S(=O)(=O)CC(C2C(N)=NN=C2N)S(=O)(=O)c2ccc(C)cc2)cc1 (stereo not drawn)", "condition met"],
  ["CN1C(=N)C(C(CS(=O)(=O)c2ccc(Cl)cc2)S(=O)(=O)c2ccc(Cl)cc2)C(=N)N(C)C1=O (stereo not drawn)", "condition not met"],
  ["N=C1ON=C(N)C1C(CC(=O)c1ccccc1)C(=O)c1ccccc1 (stereo not drawn)", "condition met"],
  ["N=C1ON=C(N)C1C(CC(=O)c1ccc(Cl)cc1)C(=O)c1ccc(Cl)cc1 (stereo not drawn)", "condition met"],
  ["NC1=NC(=S)N=C(N)C1C(CC(=O)c1ccccc1)C(=O)c1ccccc1 (stereo not drawn)", "condition not met"],
  ["NC1=NN=C(N)C1C(CS(=O)(=O)c1ccc(Cl)cc1)S(=O)(=O)c1ccc(Cl)cc1 (stereo not drawn)", "condition met"],
  ["Cc1ccc(S(=O)(=O)CC(C2C(N)=NC(=O)N=C2N)S(=O)(=O)c2ccc(C)cc2)cc1 (stereo not drawn)", "condition not met"],
  ["O=C(N[C@H](CO)[C@H](O)c1ccc([N+](=O)[O-])cc1)C(Cl)Cl", "condition met"],
  ["N=C1ON=C(N)C1C(CS(=O)(=O)c1ccccc1)S(=O)(=O)c1ccccc1 (stereo not drawn)", "condition met"]
]}
